Where these numbers come from: PubChem BioAssay (NCI)

Test system: T-47D breast
test-name: NCI tumour cell line growth inhibition, 48 h

compound | value-prefix | TGI, µM
COc1ccc(-c2csc3c2[N+]2(C)C=CC=C2C3N2CCCC2)cc1 (stereo not given) | = | 76.1
COC(=O)c1ccc(C)cc1C1CN=NC12Cc1cccc(C)c1C2=O (stereo not given) | = | 85.8
C[C@]12CC[C@H]3[C@@H](CC=C4C[C@@H](O)CC[C@@]43C)[C@@H]1C/C(=C\c1ccc([N+](=O)[O-])cc1)[C@@H]2O | = | 29.5
COC1(C)CCC(OS(C)(=O)=O)CO1 (stereo not given) | > | 100
COC1CCC(OC)C(c2nc3sccn3c2/C=N/N=C(N)N)C1 (stereo not given) | > | 65.4
